# Method Summary: Stability of compound at pH 9 assessed as half life measured at 0.5 to 92 hrs by LC-UV/MS analysis
# Type: physicochemical
# Condition Parameters: buffer, time 0.5-92 hrs
Measured Parameter: half-life

[[record]]
structure_smiles_string = "CCCCCC/C=C\\CC(=O)N[C@H]1COC(=O)[C@H](C(C)C)NC(=O)[C@@H](CC(C)C)NC(=O)[C@H](C(C)C)NC(=O)[C@H](Cc2c[nH]cn2)NC(=O)[C@@H](C(C)C)NC1=O"
measured_parameter = "half-life"
result = "7 h"

